Test system: hyperpolarization-activated current (Ih) in TG neurons (HCN channels)
Assay: Whole-cell recordings of Ih in TG neurons
Assay type: cell-based, rat
Conditions: read-out: IC50 of Ih inhibition; TG neurons, dose dependent, FIG. 3
Parameter measured: IC50 (µM)
Field: numeric (µM). Do not append units.

Query block: Record lookup: for hyperpolarization-activated current (Ih) in TG neurons (HCN channels), what IC50 belongs to C=CCc1ccc(O)c(OC)c1 [eugenol, 4-allyl-2-methoxyphenol] ?
Result block: 157
